target: human synovial fluid PLA2 (Homo sapiens, UniProt P14555); construct: Purified human synovial fluid; assay: In vitro isolated phospholipase A2 assay, human synovial fluid PLA2; details: human synovial fluid
Sequence (P14555 21-144): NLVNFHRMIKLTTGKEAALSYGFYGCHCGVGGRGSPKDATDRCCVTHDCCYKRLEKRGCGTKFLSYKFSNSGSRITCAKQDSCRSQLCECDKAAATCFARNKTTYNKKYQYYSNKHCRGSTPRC
pIC50: −log10 of the molar value.
reported metric: pIC50

molecule | measured number
O=C(O)Cc1cc(OCc2ccc3ccccc3n2)ccc1Nc1c(Cl)cccc1Cl [Example 2, acetic acid] | 5.20

====

tested on: LTB4 synthesis by rat glycogen-elicited polymorphonuclear leukocytes (lipoxygenase); assay: Inhibition of LTB4 synthesis by rat glycogen-elicited polymorphonuclear leukocytes (PMN); assay type: cell-based, rat (female Wistar); details: A 23187 and exogenous AA, acetic acid sodium salt
Structures can show the parent of a compound that is named as a salt.
reported metric: IC50 (nM)

compound | unit abbrev | measured number
O=C(O)Cc1cc(OCc2ccc3ccccc3n2)ccc1Nc1c(Cl)cccc1Cl [Example 3, acetic acid sodium salt] | nM | 20
